System Name: ALK [WT] (Homo sapiens)
Sequence (Q9UM73 19-1620): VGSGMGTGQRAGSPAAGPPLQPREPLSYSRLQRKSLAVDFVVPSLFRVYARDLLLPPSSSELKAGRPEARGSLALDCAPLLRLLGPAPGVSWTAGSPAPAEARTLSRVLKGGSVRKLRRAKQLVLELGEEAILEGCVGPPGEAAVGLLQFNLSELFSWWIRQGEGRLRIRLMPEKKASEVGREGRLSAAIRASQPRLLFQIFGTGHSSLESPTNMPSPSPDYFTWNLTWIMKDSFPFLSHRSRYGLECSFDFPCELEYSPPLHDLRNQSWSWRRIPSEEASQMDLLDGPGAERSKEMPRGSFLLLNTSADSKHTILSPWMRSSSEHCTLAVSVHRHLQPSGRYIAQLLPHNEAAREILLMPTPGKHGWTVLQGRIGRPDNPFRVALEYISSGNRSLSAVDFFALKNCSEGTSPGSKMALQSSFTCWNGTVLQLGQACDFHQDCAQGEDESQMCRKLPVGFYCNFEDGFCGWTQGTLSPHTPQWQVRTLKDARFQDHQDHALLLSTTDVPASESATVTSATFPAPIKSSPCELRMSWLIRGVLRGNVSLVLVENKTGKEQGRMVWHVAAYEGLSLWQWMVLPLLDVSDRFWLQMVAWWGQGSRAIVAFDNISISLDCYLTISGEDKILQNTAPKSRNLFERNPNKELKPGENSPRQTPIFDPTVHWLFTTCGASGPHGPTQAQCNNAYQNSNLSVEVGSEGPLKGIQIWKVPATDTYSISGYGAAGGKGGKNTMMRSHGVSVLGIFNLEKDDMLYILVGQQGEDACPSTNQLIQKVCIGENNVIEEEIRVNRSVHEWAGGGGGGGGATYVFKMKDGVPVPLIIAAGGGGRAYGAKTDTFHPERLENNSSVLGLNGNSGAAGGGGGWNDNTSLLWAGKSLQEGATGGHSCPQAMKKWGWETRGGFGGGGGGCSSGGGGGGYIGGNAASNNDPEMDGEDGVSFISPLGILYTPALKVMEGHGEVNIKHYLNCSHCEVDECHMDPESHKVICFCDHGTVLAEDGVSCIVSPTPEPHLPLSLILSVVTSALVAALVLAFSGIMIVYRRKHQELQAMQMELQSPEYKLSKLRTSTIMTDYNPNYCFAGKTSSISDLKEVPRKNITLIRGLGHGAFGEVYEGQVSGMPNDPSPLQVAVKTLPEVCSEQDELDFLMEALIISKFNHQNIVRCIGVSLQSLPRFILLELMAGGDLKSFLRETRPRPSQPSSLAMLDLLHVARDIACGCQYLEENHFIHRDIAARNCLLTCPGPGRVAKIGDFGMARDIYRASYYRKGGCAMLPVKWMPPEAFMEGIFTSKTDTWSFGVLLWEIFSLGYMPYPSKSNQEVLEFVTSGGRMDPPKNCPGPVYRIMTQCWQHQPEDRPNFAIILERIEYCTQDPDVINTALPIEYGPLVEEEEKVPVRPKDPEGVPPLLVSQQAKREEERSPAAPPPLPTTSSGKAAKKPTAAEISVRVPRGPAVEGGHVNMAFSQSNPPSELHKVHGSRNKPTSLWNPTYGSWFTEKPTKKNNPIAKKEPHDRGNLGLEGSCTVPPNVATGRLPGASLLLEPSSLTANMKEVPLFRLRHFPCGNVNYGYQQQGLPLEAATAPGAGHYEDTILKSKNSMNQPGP
Test Protocol: Kinase inhibition assay, ALK [WT]
Format: biochemical
Readout Kind: IC50

> print(dat)
                                   compound  data.value
1  COc1cc(C(C)N)ccc1Nc1ncc(Cl)c(Nc2ccccc2P(C)(C)=O)n1 (stereo not shown)   2 to 5 nM
2  COc1cc(C(C)(C)N)ccc1Nc1ncc(Cl)c(Nc2ccccc2P(C)(C)=O)n1      ≤ 2 nM
3  COc1cc(C(C)CN(C)C)ccc1Nc1ncc(Cl)c(Nc2ccccc2P(C)(C)=O)n1 (stereo not shown)  5 to 10 nM

Consider now this further compound.
Note down IC50 recorded for CNC(C)c1ccc(Nc2ncc(Cl)c(Nc3ccccc3P(C)(C)=O)n2)c(OC)c1 (stereo not shown) 2 to 5 nM
